Attribute: growth inhibition
# procedure-summary: NCI Yeast Anticancer Drug Screen. Data for the bub3 strain (AID 167)
# stated-conditions: S. cerevisiae bub3 mutant strain, at 5.0 µM (retest, dose inferred, filed as 0.5), stronger effect = higher value
The panel holds about 79,000 compounds, 15% with a hit somewhere; the sample as a whole holds those more often.
measure-name: growth inhibition (%)

INSERT INTO measurements (molecule, result_number) VALUES
  ('OC(C/C=C/c1ccccc1)(c1ccccc1)c1ccccc1', 29),
  ('C[N+]1(Cc2ccc(Cl)c(Cl)c2)CCCC1C1CCCN(Cc2ccc(Cl)c(Cl)c2)C1 (stereo unspecified)', -1),
  ('Clc1ccc2c(c1)[nH]c1c2nc2ccccn21', 36),
  ('N=C1N(c2ccccc2)C(=S)C(=Nc2ccccc2)N1c1ccccc1', -33),
  ('CN(C)CCC(=O)c1cccc([N+](=O)[O-])c1', 2),
  ('O=C1C=CC(=O)C(c2ccc3ccccc3c2)=C1', 91);

###

# procedure-summary: NCI Yeast Anticancer Drug Screen. Data for the sgs1 mgt1 strain (AID 161);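 note: 0% = growth of cultures given vehicle only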
# stated-conditions: S. cerevisiae sgs1 mgt1 strain, at 5.0 µM (retest, dose inferred, filed as 0.5)
About 79,000 compounds went through this panel and 15% of them were active in at least one assay; those are over-represented in the sample as a whole. Activity calls are given as the source filed them. Cut-off read from the data, not from the text of the source: active = growth inhibition above about 70%; inactive = the rest.
Possible outcomes: active, inactive

INSERT INTO assay_data (compound, assigned_label) VALUES
  ('CCCCCCCCCCCCCC1=NCC(c2ccc3ccccc3c2)O1 (configuration not stated)', 'inactive'),
  ('CCCCCCCCC(Sc1n[nH]c(=O)[nH]c1=O)C(=O)OCC (configuration not stated)', 'inactive'),
  ('CC[N+](CC)=c1ccc2nc3c(cc(N)c4ccccc43)oc-2c1', 'inactive'),
  ('NC(=O)c1cc(Br)cc(Br)c1O', 'inactive'),
  ('CC(C)C1=CC23CCC4C(C)(C(=O)O)CCCC4(C)C2CC1C1C(=O)OC(=O)C13 (configuration not stated)', 'active'),
  ('CCCCCCCCCCCCCCCCOP(=O)(O)OP(=O)(O)OCC1OC(n2ccc(N)nc2=O)C(O)C1O (configuration not stated)', 'active'),
  ('Nc1nccnc1C(=O)O', 'inactive'),
  ('Cc1ccc2c(c1)C1(C)OC(C=CC1=O)O2 (configuration not stated)', 'active'),
  ('O=C1c2ccccc2-n2c1nc1ccccc1c2=O', 'inactive'),
  ('c1ccc(-c2nc3ccccc3[nH]2)cc1', 'inactive'),
  ('Cc1cc(NS(=O)(=O)c2ccc(N=Nc3cc(N=Nc4ccc(S(=O)(=O)Nc5cc(C)nc(C)n5)cc4)c4c(NC(=O)C(Cl)Cl)cccc4c3OC(=O)C(Cl)Cl)cc2)nc(C)n1 (tested in a mixture with another compound)', 'inactive'),
  ('CCC(C)(C)c1cc(O)c(C(C)(C)CC)cc1O', 'inactive'),
  ('O=C1OC(CN2CCOCC2)CN1/N=C/c1ccc([N+](=O)[O-])o1 (configuration not stated)', 'inactive'),
  ('Nc1ncnc2c1ncn2CCCl', 'inactive'),
  ('CCCCCCCCCCCCCCCC(=O)NCC[N+](C)(C)C', 'inactive'),
  ('Nc1ccc(Cc2ccc(Br)cc2)cc1', 'inactive'),
  ('OCC(O)C(O)C(O)C(O)C(/C=N/Nc1ccccc1)=N/Nc1ccccc1 (configuration not stated)', 'inactive'),
  ('CSc1ncnc2c1ncn2C1OC(CO)C(O)C1O (configuration not stated)', 'inactive'),
  ('CCCCCCCc1c(Cl)nc(Cl)nc1Cl', 'inactive'),
  ('O=C(Nc1ccc(C(=O)O)c(O)c1)c1ccccc1', 'inactive'),
  ('CCCCCCN(CCCCCC)C(=O)C1=C(C)NC(C)=C(C(=O)N(CCCCCC)CCCCCC)C1', 'inactive'),
  ('Cc1c2ccccc2c(C=O)c2ccccc12', 'inactive'),
  ('O=S(=O)(O)c1ccc(NN(c2c(O)ccc3ccccc23)S(=O)(=O)O)cc1', 'inactive'),
  ('O=C1c2cccc(NCCCNCCO)c2C(=O)c2cccc(NCCCNCCO)c21', 'inactive'),
  ('O=C(/C=C/c1cccnc1)c1ccccc1', 'inactive'),
  ('C=CC(=O)O', 'inactive'),
  ('CCN(CC)C(=S)Sc1nc2ccccc2s1', 'inactive'),
  ('CCOC(=O)Nc1c(C)cc(C)c(Br)c1C', 'inactive'),
  ('[N-]=[N+]=NC(=O)Nc1cccc(C(F)(F)F)c1', 'inactive'),
  ('CC(CCc1nc2ccccc2s1)(c1ccc(O)cc1)c1ccc(O)cc1', 'inactive'),
  ('Cc1n(Cc2ccccc2)c2c([n+]1C)C(=O)c1ccccc1C2=O', 'inactive'),
  ('COc1cccc2c1C(=O)c1c(O)c3c(c(O)c1C2=O)CC(O)(C(C)=O)CC3OC1CC(N)C(O)C(C)O1 (configuration not stated)', 'inactive'),
  ('OCC1OC(n2cnc3c(=S)nc[nH]c32)C(O)C1O (configuration not stated)', 'inactive'),
  ('C=C1CC2(CC(c3ccccc3OC)OC(c3ccccc3OC)C2)OC1=O (configuration not stated)', 'inactive'),
  ('CCN(CC)CCC(=O)/C=C/c1ccccc1', 'inactive'),
  ('Oc1c(Cl)c(Cl)c(Cl)c2ccccc12', 'inactive'),
  ('O=C(O)c1ccc(Nc2cnc3ccc(C(F)(F)F)cc3n2)cc1', 'inactive'),
  ('Cc1ccc(S(=O)(=O)NC2CCCCCCC2)cc1', 'inactive'),
  ('CC1(C)N(OC2CCCCO2)C(c2ccccc2)C(c2ccccc2)=[N+]1[O-] (configuration not stated)', 'inactive'),
  ('Cc1c(C)c(CCl)c(C)c(C)c1CCl', 'inactive'),
  ('Fc1ccc(/C=C2\COCC3=C2NC(=S)NC3c2ccc(F)cc2)cc1 (configuration not stated)', 'active'),
  ('O=C1C(Cl)=C(N2CCN(C3=C(Cl)C(=O)c4ccccc4C3=O)CC2)C(=O)c2ccccc21', 'inactive'),
  ('CC1=NC(=Cc2ccc([N+](=O)[O-])cc2)C(=O)N1n1c(-c2ccccc2)nc2ccccc2c1=O', 'inactive'),
  ('O=[N+]([O-])c1c(Cl)nc2ccccn12', 'inactive'),
  ('O=C1c2cc3c(cc2CC12Cc1ccccc1C2)CCC3', 'inactive'),
  ('Nc1ccc(N=Nc2ccccc2)c(N)n1', 'inactive'),
  ('Cc1ccc(C23C=CC(c4ccccc4)(C2)C2C(=O)OC(=O)C23)cc1 (configuration not stated)', 'active');

###

# procedure-summary: NCI Yeast Anticancer Drug Screen. Data for the bub3 strain (AID 167)
# stated-conditions: S. cerevisiae bub3 mutant strain, at 50.0 µM (retest, dose inferred, filed as 5.0), stronger effect = higher value
Compounds without any hit were thinned out: in the full panel of roughly 79,000, 15% have a hit.
Attribute: growth inhibition
measure-name: growth inhibition (%)

INSERT INTO measurements (compound, measurement_unit, result_number) VALUES
  ('Clc1ccc(CN2CCCN(Cc3ccc(Cl)cc3)C2c2cc3ccccc3c3ccccc23)cc1', '%', 98),
  ('O=C(/C(=C\c1ccc(Cl)c(Cl)c1)c1ccccc1)c1ccc(O)cc1', '%', 94),
  ('CC(=O)Oc1cccc2cccnc12', '%', 100),
  ('CCO/C=C1\SC(=S)N(c2cccc(O)c2)C1=O', '%', 91),
  ('c1ccc(C2=NC(c3ccccc3)=NS(S3=NC(c4ccccc4)=NC(c4ccccc4)=N3)=N2)cc1 (stereo not given)', '%', 97),
  ('CCO/C(=C\C=O)C1CCC2C3CC=C4CC(OC(C)=O)CCC4(C)C3CCC12C (stereo not given)', '%', 74),
  ('C/C(=N\NC(=S)N1CCN(c2ccccn2)CC1)c1nccs1', '%', 99),
  ('CCCCCC(C)c1ccc(O)c(C)c1 (stereo not given)', '%', 55),
  ('CCN(CC)CCNc1n[n+]([O-])c2cc([N+](=O)[O-])ccc2[n+]1[O-]', '%', 67),
  ('COc1cccc2c1C(=O)c1c(O)c3c(c(O)c1C2=O)C[C@@](O)(C(C)=O)C[C@@H]3OC1CC(N(C)C)C(O)C(C)O1 (stereo not given in full)', '%', 99),
  ('CCCCCCC(C(=O)OCC)N1C(=O)c2ccccc2S1(=O)=O (stereo not given)', '%', 55),
  ('CC1CC=CCC1C(=O)O (stereo not given)', '%', 2),
  ('c1cc2c3c(c1)c1cc4c(cc1c[n+]3CC2)OCO4', '%', 20),
  ('COc1cc2c(cc1OC)C(Cc1c3ccccc3cc3ccccc13)N(C)CC2 (stereo not given)', '%', 15),
  ('Cc1c(OCc2cccc3ccccc23)ccc2c(=O)cc(SCCN3CCOCC3)oc12', '%', 47),
  ('CC(C)C1=C(O)C2=C(C(=O)C1=O)C1(C)CCCC(C)(C)C1CC2O (stereo not given)', '%', 97),
  ('CCCC(C)NCCOC(=O)C(c1ccccc1)C1CCCCC1 (stereo not given)', '%', 49),
  ('CSc1ccc(N2C(=O)CSC2=S)cc1Cl', '%', 82),
  ('CN(C)c1ccc(/C=C/c2ccc3ccccc3[n+]2C)cc1', '%', 99),
  ('O=C(NNc1ccnc2cc(Cl)ccc12)/C(=C/c1ccc2c(c1)OCO2)NC(=O)c1ccccc1', '%', 83),
  ('Cc1nc2c(ccc3[nH]c4ccccc4c32)s1', '%', 99),
  ('COc1ccc(C2c3cc4c(cc3OC(NNC(N)=O)C2C)OCO4)cc1 (stereo not given)', '%', 99),
  ('Cc1c(-c2ccccc2)ccnc1/C=N/NC(N)=S', '%', 45),
  ('O[Si](c1ccccc1)(c1ccccc1)c1ccccc1.O[Si](c1ccccc1)(c1ccccc1)c1ccccc1.O[Si](c1ccccc1)(c1ccccc1)c1ccccc1.[O]=[V]', '%', 62),
  ('CC(C)c1ccc(C=Nc2ccc(SSc3ccc(N=Cc4ccc(C(C)C)cc4)cc3)cc2)cc1', '%', 1),
  ('C=CC(=O)OCCOc1ccc(Cl)cc1Cl', '%', 97),
  ('CN(C)CCC(=O)c1cccc([N+](=O)[O-])c1', '%', 92),
  ('CC(C)CC(Nc1c(O)ccc2ccccc12)C(=O)O (stereo not given)', '%', 99),
  ('COC(=O)[C@@H](NS(=O)(=O)CC12CCC(CC1)C2(C)C)C(C)(C)C', '%', 54),
  ('O=S(=O)(O)c1ccc2cc(N=Nc3c(O)ccc4ccccc34)ccc2c1', '%', -21),
  ('Cc1ccc2c(c1)C1(C)OC(C=CC1=O)O2 (stereo not given)', '%', 100),
  ('O=C1C(CN2CCOCC2)CCCC1CN1CCOCC1 (stereo not given)', '%', 95),
  ('C[C@H](CCC(=O)O)[C@H]1CC[C@H]2[C@@H]3[C@H](O)C[C@@H]4C[C@H](O)CC[C@]4(C)[C@H]3CC[C@]12C', '%', 98),
  ('O=C1N(c2ccccc2)C(=O)N1c1ccccc1', '%', 17),
  ('COC(=O)C1=COC(C)C2C[n+]3ccc4c([nH]c5ccccc54)c3CC12 (stereo not given)', '%', 35),
  ('CNC(=O)OCCN1c2ccccc2Sc2ccccc21', '%', 95),
  ('CCCCCCCCCCCC(=O)CN1CCOCC1', '%', 99),
  ('CC1CP(c2ccccc2)(c2ccccc2)(c2ccccc2)OC1(C(=O)c1ccccc1)c1ccccc1 (stereo not given)', '%', 11),
  ('CCCCCC[C@H](C/C=C\CCCCCCCC(=O)OC)OC(C)=O', '%', 92),
  ('[N-]=[N+]=NC(=O)Nc1cccc(C(F)(F)F)c1', '%', 98),
  ('NC(CCCCNC(=O)c1ccccc1)C(=O)O (stereo not given)', '%', -2),
  ('C=CCNC(=O)c1ccccc1SC(C)=O', '%', 99),
  ('CCCCN(CCCC)C(Cl)=Nc1ccccc1', '%', 38),
  ('Cc1ccccc1N=Nc1ccc(N=Nc2ccc(N)nc2N)c(C)c1', '%', 9),
  ('CCN1/C(=C/C=C/C=C/c2sc3ccccc3[n+]2CC)Sc2ccccc21', '%', 1);
